Target: UniProt:P56560
Sequence (P56560 whole entry): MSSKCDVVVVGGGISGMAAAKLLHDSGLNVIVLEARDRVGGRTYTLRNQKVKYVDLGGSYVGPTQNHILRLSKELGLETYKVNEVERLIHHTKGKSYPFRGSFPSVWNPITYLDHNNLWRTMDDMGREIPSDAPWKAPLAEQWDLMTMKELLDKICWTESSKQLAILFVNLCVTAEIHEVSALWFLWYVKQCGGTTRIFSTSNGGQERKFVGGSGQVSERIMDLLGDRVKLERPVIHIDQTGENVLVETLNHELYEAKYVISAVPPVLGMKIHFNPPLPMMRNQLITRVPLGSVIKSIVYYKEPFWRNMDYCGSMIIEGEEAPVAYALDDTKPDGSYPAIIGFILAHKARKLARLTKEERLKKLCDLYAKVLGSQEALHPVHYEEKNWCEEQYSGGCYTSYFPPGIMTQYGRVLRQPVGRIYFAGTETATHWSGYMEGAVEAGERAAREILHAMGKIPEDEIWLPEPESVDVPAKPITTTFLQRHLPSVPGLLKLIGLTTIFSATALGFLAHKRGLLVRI
Experiment: Kinetic constant for inactivation of MAO B from replot of half-lives of inactivation
Details: cattle
Quantity: kinact (s⁻¹)
Numeric answer only, unit s⁻¹ assumed.

Item: CNCC1CN(c2ccc(OCc3cccc(Cl)c3)cc2)C(=O)O1 (stereo unspecified) Test system: UniProt:P56560 Read-out: kinact Value: ?
0.000417

Lab note: need kinact for CN(C)CC1CN(c2ccc(OCc3cccc(Cl)c3)cc2)C(=O)O1 (stereo unspecified) on UniProt:P56560, anyone have it?
0.00137

Notebook entry, UniProt:P56560 assay: kinact of `COc1ccc([C@H]2C[C@@H](CN(C)C)OC2=O)cc1` = ?
0.000283

For the record COc1ccc(N2CC(CN)CC2=O)cc1 (stereo unspecified) , what value of kinact is listed for UniProt:P56560?
1.12e-05

What measured kinact is associated with COc1ccc(N2CC(CN(C)C)OC2=O)cc1 (stereo unspecified) on UniProt:P56560?
5e-05

What is its kinact for UniProt:P56560? Entry: COc1ccc(N2CC(CN)OC2=O)cc1 (stereo unspecified)
1.33e-05

Can you look up kinact on UniProt:P56560 for CNCC1CC(=O)N(c2ccc(OC)cc2)C1 (stereo unspecified) ?
5.83e-05

What value of kinact on UniProt:P56560 does COc1ccc(N2CC(CN(C)C)CC2=O)cc1 (stereo unspecified) have?
5.83e-05

Provide the documented kinact with UniProt:P56560 as the system for CNCC1CN(c2ccc(OC)cc2)C(=O)O1 (stereo unspecified)
3.17e-05

Record lookup: for UniProt:P56560, what kinact belongs to NCC1CN(c2ccc(OCc3cccc(Cl)c3)cc2)C(=O)O1 (stereo unspecified) ?
0.00233

So what kinact did COc1ccc(C2CC(CN)OC2=O)cc1 (stereo unspecified) get with UniProt:P56560?
7.33e-05
